# TARGET OR SYSTEM: SMARCA2 (Homo sapiens)
# Sequence (P51531 whole entry): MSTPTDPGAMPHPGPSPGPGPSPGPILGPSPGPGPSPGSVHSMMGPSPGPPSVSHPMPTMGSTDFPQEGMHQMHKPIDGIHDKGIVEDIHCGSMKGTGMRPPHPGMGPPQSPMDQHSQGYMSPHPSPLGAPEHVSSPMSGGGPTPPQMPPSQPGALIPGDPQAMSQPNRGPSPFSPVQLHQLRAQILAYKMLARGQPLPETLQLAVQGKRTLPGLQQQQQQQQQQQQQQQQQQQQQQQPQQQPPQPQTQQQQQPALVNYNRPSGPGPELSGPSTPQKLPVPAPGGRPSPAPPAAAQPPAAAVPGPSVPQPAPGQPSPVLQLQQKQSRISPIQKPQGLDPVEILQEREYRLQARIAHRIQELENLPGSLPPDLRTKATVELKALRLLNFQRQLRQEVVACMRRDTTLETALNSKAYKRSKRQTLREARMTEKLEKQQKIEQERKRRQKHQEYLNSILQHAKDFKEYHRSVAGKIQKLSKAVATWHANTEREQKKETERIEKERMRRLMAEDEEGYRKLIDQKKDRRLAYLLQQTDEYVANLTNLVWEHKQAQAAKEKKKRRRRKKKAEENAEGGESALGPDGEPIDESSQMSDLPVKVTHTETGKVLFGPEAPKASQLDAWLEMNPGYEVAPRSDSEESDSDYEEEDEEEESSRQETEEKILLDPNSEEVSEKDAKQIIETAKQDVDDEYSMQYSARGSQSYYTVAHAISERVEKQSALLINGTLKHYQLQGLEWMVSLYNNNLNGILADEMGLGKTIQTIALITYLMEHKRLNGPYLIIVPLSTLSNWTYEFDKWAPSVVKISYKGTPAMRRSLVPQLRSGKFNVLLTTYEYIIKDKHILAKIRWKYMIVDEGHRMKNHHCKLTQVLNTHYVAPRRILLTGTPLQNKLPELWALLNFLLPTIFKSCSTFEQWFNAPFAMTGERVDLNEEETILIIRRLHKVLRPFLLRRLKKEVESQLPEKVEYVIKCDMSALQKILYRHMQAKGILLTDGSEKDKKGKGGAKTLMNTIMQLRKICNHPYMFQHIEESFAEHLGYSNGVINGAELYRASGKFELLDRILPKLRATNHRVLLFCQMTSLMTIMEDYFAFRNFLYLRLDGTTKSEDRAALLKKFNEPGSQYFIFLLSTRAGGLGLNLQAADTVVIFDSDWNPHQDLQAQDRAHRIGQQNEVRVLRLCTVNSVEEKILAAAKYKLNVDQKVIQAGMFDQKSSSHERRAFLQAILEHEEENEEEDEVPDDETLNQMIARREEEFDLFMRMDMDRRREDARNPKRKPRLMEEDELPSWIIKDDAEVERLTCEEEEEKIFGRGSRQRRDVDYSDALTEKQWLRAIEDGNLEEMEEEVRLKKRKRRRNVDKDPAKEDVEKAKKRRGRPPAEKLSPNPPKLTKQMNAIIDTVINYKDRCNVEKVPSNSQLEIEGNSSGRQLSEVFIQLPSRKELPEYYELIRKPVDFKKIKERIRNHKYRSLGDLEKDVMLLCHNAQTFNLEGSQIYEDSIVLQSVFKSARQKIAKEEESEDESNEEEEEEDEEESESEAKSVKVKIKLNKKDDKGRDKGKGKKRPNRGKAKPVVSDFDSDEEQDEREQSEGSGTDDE
# ASSAY EXPLANATION: HiBiT assay for protein degradation, Hela SMARCA2-HiBiT cells (A series)
# Format: cell-based
# Design: Hela cells were genetically modified via CRISPR/Cas9 to fuse HiBiT to the carboxy terminus of SMARCA2; host or cells: HeLa (CRISPR/Cas9 HiBiT knock-in)
# CONDITION DESCRIPTION: Hela SMARCA2-HiBiT cells, 24 hours treatment; read-out: SMARC A2 Hela HiBit DC50
The following compounds are listed with their measured DC50 values.

Illustrative cases are given below, each with its answer.
- COMPOUND: "Cc1ncsc1-c1ccc([C@H](CN2CC(C)(O)C2)NC(=O)[C@@H]2C[C@@H](O)CN2C(=O)[C@@H](n2cc([C@H]3CC[C@H](CN4CCC(c5ccc6c(c5)-n5c(nc(=O)c7c(Cl)cccc75)C65CCCCC5)CC4)CC3)nn2)C(C)(C)C)cc1 [Compound A71]"
  DC50: "< 100 nM"
- COMPOUND: "Cc1ncsc1-c1ccc([C@H](C)NC(=O)[C@@H]2C[C@@H](O)CN2C(=O)[C@@H](n2cc(CCN3CCC(c4ccc5c(c4)C4(CCCCC4)c4nc(=O)c6c(Br)cccc6n4-5)CC3)nn2)C(C)(C)C)cc1 [Compound A54]"
  DC50: "< 100 nM"
- COMPOUND: "Cc1ncsc1-c1ccc([C@H](CN2CC(C)(F)C2)NC(=O)[C@@H]2C[C@@H](O)CN2C(=O)[C@@H](n2cc([C@H]3CC[C@H](CN4CCC(c5ccc6c(c5)-n5c(nc(=O)c7c(Cl)cccc75)C6(C)C)CC4)CC3)nn2)C(C)(C)C)cc1 [Compound A93]"
  DC50: "< 10 nM"

Please find the next compound below.
Need DC50 of Cc1ncsc1-c1ccc([C@H](CCCCCN2CCC(c3ccc4c(c3)C3(CCCCC3)c3nc(=O)c5c(Br)cccc5n3-4)CC2)NC(=O)[C@H]2C[C@H](O)CN2C(=O)[C@@H](NC(=O)C2(CN3CCOCC3)CC2)C(C)(C)C)cc1 [Compound A38] , thanks.
< 100 nM

----------
# TARGET OR SYSTEM: SMARCA4 (Homo sapiens)
# Sequence (P51532 whole entry): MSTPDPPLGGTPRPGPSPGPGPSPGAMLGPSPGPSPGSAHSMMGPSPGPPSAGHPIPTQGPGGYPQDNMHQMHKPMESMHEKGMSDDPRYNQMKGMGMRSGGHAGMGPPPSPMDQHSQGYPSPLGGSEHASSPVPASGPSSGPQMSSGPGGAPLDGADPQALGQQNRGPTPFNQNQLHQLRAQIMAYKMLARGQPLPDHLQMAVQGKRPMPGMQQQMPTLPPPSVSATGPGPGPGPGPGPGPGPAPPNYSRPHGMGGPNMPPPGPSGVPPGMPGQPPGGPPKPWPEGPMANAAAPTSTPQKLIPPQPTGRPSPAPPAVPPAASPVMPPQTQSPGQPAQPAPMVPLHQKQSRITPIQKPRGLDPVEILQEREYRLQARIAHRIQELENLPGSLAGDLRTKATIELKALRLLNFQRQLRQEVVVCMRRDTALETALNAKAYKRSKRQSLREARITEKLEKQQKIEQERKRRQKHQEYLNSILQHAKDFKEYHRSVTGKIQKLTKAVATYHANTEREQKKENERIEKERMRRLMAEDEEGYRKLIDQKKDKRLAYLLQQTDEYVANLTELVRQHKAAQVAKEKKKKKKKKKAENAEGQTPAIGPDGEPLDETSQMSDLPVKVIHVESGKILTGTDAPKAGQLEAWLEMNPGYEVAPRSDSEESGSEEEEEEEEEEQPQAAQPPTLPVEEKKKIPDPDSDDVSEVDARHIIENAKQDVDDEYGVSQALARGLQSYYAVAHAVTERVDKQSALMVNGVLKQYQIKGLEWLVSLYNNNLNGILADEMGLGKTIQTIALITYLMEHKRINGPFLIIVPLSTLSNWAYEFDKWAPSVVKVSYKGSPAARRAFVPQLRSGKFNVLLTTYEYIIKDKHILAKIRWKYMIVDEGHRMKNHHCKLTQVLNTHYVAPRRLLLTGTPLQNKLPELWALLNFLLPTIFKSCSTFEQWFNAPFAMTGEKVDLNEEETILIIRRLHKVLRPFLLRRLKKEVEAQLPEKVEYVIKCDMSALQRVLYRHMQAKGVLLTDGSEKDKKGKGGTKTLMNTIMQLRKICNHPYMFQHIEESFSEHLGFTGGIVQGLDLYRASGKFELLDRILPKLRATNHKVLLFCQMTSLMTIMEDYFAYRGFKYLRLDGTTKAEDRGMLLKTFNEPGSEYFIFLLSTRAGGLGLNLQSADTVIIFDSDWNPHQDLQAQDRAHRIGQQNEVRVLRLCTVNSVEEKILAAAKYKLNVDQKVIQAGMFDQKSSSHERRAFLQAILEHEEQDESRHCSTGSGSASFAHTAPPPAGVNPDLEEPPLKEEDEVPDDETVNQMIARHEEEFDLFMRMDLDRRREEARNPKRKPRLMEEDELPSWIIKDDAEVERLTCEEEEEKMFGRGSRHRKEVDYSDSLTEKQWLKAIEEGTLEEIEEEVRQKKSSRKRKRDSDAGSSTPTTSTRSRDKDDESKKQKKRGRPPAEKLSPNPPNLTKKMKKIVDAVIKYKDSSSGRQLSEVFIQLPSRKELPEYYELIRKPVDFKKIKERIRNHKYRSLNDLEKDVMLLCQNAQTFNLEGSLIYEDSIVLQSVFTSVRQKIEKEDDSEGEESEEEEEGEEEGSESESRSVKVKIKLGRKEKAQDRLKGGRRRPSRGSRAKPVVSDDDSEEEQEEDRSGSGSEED
# ASSAY EXPLANATION: HiBiT assay for protein degradation, Hela SMARCA4-HiBiT cells (A series)
# Format: cell-based
# Set-up: fuse HiBiT to the carboxy terminus of SMARCA2 (Promega CS302365) or SMARCA4 (Promega CS3023225); host or cells: HeLa (CRISPR/Cas9 HiBiT knock-in)
# CONDITION DESCRIPTION: Hela SMARCA4-HiBiT cells, 24 hours treatment; read-out: SMARC A4 Hela HiBit Dmax
This listing pairs compounds with measured Dmax.

- COMPOUND: "Cc1ncsc1-c1ccc([C@H](CO)NC(=O)[C@@H]2C[C@@H](O)CN2C(=O)[C@H](C2CCCCC2)n2cc([C@H]3CC[C@H](CN4CCC(c5ccc6c(c5)-n5c(nc(=O)c7c(Br)cccc75)C65CCCCC5)CC4)CC3)nn2)cc1 [Compound A127]"
  Dmax: "70 to 90%"

// moving on: another record for Dmax
Requested field: Dmax. Item: Cc1ncsc1-c1ccc([C@H](C)NC(=O)[C@@H]2C[C@@H](O)CN2C(=O)[C@H](C2CCOCC2)n2cc([C@H]3CC[C@H](CN4CCC(c5ccc6c(c5)-n5c(nc(=O)c7c(Br)cccc75)C65CCCCC5)CC4)CC3)nn2)cc1 [Compound A121]
70 to 90%
